biological target: Potassium voltage-gated channel subfamily KQT member 1 (Homo sapiens); experiment: inhibitors of human KCNQ1 channel, primary screen, cell-based, thallium flux, high-throughput (AID 2642); conditions: CHO-K1 KCNQ1, FluxOR thallium flux fluorescence, at 10 µM;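 further: channel opened by potassium depolarization with thallium stimulus after 20 min compound exposure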
Hit rate of the full screen: of about 310,000 compounds, about 3,900 (1.3%) were called active.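 How the source made its calls: active means compounds whose thallium flux B-score, printed positive for inhibition, exceeds three library SD while starting fluorescence stays within three; inactive means the rest.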 Only a selection was taken, and actives are over-represented in it overall.
Lab note: assign the record to one of active, inactive

O=C(NC(Nc1nc2ccc([N+](=O)[O-])cc2s1)(C(F)(F)F)C(F)(F)F)c1ccccc1 : active
CSc1nc2ccc(S(=O)(=O)N3CCc4ccccc43)cc2s1 : inactive
CCC(=O)NC(Nc1nc2ccc(C)cc2s1)(C(=O)OC)C(F)(F)F (centres undefined) : inactive
COC(=O)c1ccc(CN2CCCC(C(=O)Nc3cccc(-n4cnnn4)c3)C2)cc1 (centres undefined) : inactive
CCOC(=O)COn1c(=O)c(-c2ccc(OCC)cc2)[n+]([O-])c2ccccc21 : inactive

Could you check what this test reported for CCOc1ccc(CC(=O)NC2CCN(Cc3ccccc3)CC2)cc1 ? inactive

---

molecular target: Potassium voltage-gated channel subfamily KQT member 1 (Homo sapiens); experiment: inhibitors of human KCNQ1 channel, primary screen, cell-based, thallium flux, high-throughput (AID 2642); details: CHO-K1 KCNQ1, FluxOR thallium flux fluorescence, at 10 µM;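 further: channel opened by potassium depolarization with thallium stimulus after 20 min compound exposure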
Out of some 310,000 compounds screened, about 3,900 (1.3%) were called active.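 How the source made its calls: active means compounds whose thallium flux B-score, printed positive for inhibition, exceeds three library SD while starting fluorescence stays within three; inactive means the rest.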 This excerpt belongs to a sample that is enriched for actives.
Select the matching outcome among true (1) = active, false (0) = inactive

Past entries and their recorded results:
COc1cccc(NC(=O)CCNS(=O)(=O)c2ccc3c(c2)oc(=O)n3C)c1 : false (0)
COc1ccc(CCNCC(O)Cn2ccc3ccccc32)cc1OC (stereo unspecified) : false (0)
Cc1cccc(N2CCC(NCc3c(C(=O)N4CCCCC4)nc4c(C)cccn34)CC2)c1 : false (0)

What did this assay record as the result for CC(=O)Nc1ccc(NC(=O)c2ccc3c(c2)C(=O)N(c2ccccc2C)C3=O)cc1 ? false (0)

Follow-up item: COc1cccc(NC(C)=[N+](C)CCNS(=O)(=O)c2ccc(Cl)cc2)c1 true (1)

---

target: Potassium voltage-gated channel subfamily KQT member 1 (Homo sapiens) (UniProt P51787); assay: inhibitors of human KCNQ1 channel, primary screen, cell-based, thallium flux, high-throughput (AID 2642); settings: CHO-K1 KCNQ1, FluxOR thallium flux fluorescence, at 10 µM;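 further: channel opened by potassium depolarization with thallium stimulus after 20 min compound exposure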
Sequence (P51787 whole entry, looked up): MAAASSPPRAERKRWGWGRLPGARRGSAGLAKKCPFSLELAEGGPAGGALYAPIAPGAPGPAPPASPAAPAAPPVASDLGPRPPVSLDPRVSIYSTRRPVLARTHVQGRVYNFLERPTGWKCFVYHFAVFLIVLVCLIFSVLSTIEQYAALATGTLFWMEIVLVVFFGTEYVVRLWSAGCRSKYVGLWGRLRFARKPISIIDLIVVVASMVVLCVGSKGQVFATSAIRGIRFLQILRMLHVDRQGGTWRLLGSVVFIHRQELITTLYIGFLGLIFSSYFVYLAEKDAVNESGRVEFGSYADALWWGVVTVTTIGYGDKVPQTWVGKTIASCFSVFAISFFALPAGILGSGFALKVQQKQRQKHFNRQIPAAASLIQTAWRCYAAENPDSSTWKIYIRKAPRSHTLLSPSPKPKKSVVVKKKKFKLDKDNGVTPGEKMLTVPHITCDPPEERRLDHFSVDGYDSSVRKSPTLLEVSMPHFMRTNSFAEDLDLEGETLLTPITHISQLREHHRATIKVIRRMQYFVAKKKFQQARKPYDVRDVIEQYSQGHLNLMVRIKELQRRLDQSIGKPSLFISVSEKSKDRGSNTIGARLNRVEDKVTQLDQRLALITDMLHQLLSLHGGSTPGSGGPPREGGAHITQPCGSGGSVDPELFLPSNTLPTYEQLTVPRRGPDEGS
Out of some 310,000 compounds screened, about 3,900 (1.3%) were called active.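 Rule for the calls: active = compounds whose thallium flux B-score, printed positive for inhibition, exceeds three library SD while starting fluorescence stays within three; inactive = the rest.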 The list comes from a sample in which actives are over-represented; it also holds close analogues and randomly drawn compounds.
Answer with one of the outcomes given here: 1 for active, 0 for inactive

Example results:
CCn1cnc2scc(-c3ccc(C)c(C)c3)c2c1=O : 0
COC(=O)[C@@H](Cc1ccccc1)NC(=O)NCCc1ccccc1 : 0
COc1ccc(/C=C(\NC(=O)c2ccc(OCC(C)C)cc2)C(=O)OCc2ccco2)cc1 : 0
COCc1cc(C)nc2sc3c(=O)n(-c4cccc5ccccc45)nnc3c12 : 0
NS(=O)(=O)c1ccc(CCNC(=S)Nc2ccc(S(N)(=O)=O)cc2)cc1 : 0

For CCn1ccnc1CN(C)C(=O)c1cc(COc2ccc(-n3cncn3)cc2)on1 , which call appears in the assay record? 0

What about C=C(C)CNC(=O)c1ccc(OC2CCN(C(=O)COC)CC2)cc1 ? 0

Next entry: N#C/C(=C/c1ccc(N2CCCCC2)o1)C(=O)NCCc1c[nH]c2ccccc12 1

Subsequent entry: CC(/C=C/c1ccccc1)=N\NC(=O)C1CC1(C)c1ccccc1 (stereo not drawn) 1

Source listed as PubChem BioAssay AID2642.
